- System: NCI-H226 lung
- assay_explanation: NCI tumour cell line growth inhibition, 48 h; in the data active means GI50 below about 0.43 µM; inactive means the rest
Response enum: active, inactive

GET /call?item= COC(=O)[C@]12CC[C@@H](C)[C@H](C)[C@@H]1C1=CC[C@@H]3[C@@](C)(CC#N)C4=C(C[C@@]3(C)[C@]1(C)CC2)OC[C@]4(C)C=O returns the recorded outcome of this test.
inactive

GET /call?item= COc1c(B(O)O)cccc1-c1nc2c(F)cc3n[nH]c(C)c3c2c2c1CCCC2 returns the recorded outcome of this test.
inactive

GET /call?item= CCCCCCCCCCCCCCCCCCOc1ccccc1COP(=O)(O)OOCC[N+](C)(C)C returns the recorded outcome of this test.
inactive

GET /call?item= C[C@]12CC[C@@H]3c4ccc(OC(=O)N(CCCl)CCCl)cc4CC[C@H]3[C@@H]1CC[C@@H]2OP(=O)(O)O returns the recorded outcome of this test.
inactive

GET /call?item= Cc1c(C(=O)c2ccccc2)[n+](=O)c2cc(F)c(F)cc2n1[O-] returns the recorded outcome of this test.
inactive

GET /call?item= CC(=O)Nc1cc2c3c(cccc3c1)-c1ccccc1-2 returns the recorded outcome of this test.
inactive

GET /call?item= CCCCOC(=O)c1c(C)[nH]c(/C=C2\N=C(c3ccc[nH]3)C=C2OC)c1C returns the recorded outcome of this test.
active

GET /call?item= Nc1cc(N)c2nc(NCCc3ccc(Cl)c(Cl)c3)cnc2c1 returns the recorded outcome of this test.
inactive

GET /call?item= COc1cc2c(cc1OCCCN1CCN(C(=S)SCCC(C#N)(c3ccccc3)c3ccccc3)CC1)N=C[C@@H]1CCCN1C2=O returns the recorded outcome of this test.
inactive
